Value source: patent US20120316071A1

Assayed target: T1, Recombinant Human DLL4 (delta-like protein 4) (human, UniProt Q9NR61 27-524)
T1 construct: Bought recombinant human DLL4 (R&D Systems Cat#1506-D4/CF); also called rHuman DLL4
Test name: ECL (MSD) binding assay, immobilised DLL4, 10 nM Fab;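 also: fab binding read as electrochemiluminescence via a TAG-labelled detection antibody, 1 h incubations at 20 °C, antigen signal compared with each well's blank, ratio of at least 4 scored as binder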
Measurement name: ECL Signal [10 nM Fab]
Give your answer as a number; write no unit.

The binder listed as Fab VH5-51_IGHD5-18*01>3_IGHJ4*01 G100K/G104T & V3-4_IGLJ1*01 V91H (Fab, V domains shown, Fab; expressed with CH1 (His and Flag tags) and lambda CL from the expression plasmids; also called H:KT & V91H) VH: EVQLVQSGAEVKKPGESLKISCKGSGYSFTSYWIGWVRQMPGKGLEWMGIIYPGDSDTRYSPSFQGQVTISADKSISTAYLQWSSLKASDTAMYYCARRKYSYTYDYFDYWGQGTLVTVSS VL: QTVVTQEPSFSVSPGGTVTLTCGLSSGSVSTSYYPSWYQQTPGQAPRTLIYSTNTRSSGVPDRFSGSILGNKAALTITGAQADDESDYYCHLYMGSGISYVFGTGTKVTVL shows ECL Signal [10 nM Fab] equal to 27100

The binder listed as Fab VH5-51_IGHD5-18*01>3_IGHJ4*01 G100K/G104T & V3-4_IGLJ1*01 M94G (Fab, V domains shown, Fab; expressed with CH1 (His and Flag tags) and lambda CL from the expression plasmids; also called H:KT & M94G) VH: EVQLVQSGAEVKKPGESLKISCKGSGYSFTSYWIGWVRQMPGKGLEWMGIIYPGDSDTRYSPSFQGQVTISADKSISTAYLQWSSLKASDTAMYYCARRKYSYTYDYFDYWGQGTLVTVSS VL: QTVVTQEPSFSVSPGGTVTLTCGLSSGSVSTSYYPSWYQQTPGQAPRTLIYSTNTRSSGVPDRFSGSILGNKAALTITGAQADDESDYYCVLYGGSGISYVFGTGTKVTVL shows ECL Signal [10 nM Fab] equal to 20300
